# assay system: juvenile rat MTτ (Rattus norvegicus, UniProt P19332, DEL587-617)
# Construct: killed by decapitation at postnatal day 11 (juveniles); from tissue; host or cells: brain microtubules of P11 Sprague-Dawley rats
# Sequence (P19332 with tags, fused parts or gaps isoform P19332-6 DEL209-239): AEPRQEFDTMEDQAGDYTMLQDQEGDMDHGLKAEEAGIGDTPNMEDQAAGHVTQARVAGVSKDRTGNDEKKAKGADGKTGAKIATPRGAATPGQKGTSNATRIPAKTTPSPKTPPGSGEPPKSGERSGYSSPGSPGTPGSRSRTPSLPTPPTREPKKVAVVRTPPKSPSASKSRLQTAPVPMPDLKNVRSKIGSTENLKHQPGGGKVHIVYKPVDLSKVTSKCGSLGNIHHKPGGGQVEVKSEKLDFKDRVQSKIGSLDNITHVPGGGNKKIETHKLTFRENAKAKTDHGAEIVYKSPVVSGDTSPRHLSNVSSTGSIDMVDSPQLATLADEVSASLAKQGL
# protocol summary: Fatty acid dependence of tau assembly, polymer length per field by electron microscopy
# Assay type: biochemical
# stated conditions: 50 μM free fatty acid, 72 hours, juvenile rat MTτ; average ± S.E.M. (n = 12)
Decide using Polymer Mass (μm/field) alone. Strictly below 7 μm/field: fulfilled. Equal to or above 7 μm/field: not fulfilled.

// below: answered molecules
>  <line notation>
CCCCCC=CCC=CCCCCCCCCCC(=O)O

>  <label class>
fulfilled

$$$$
>  <line notation>
CCCCCC=CCC=CCC=CCCCCCCC(=O)O

>  <label class>
not fulfilled

$$$$
>  <line notation>
CCCCCCCCC=CCCCCCCCCCC(=O)O

>  <label class>
not fulfilled

$$$$
>  <line notation>
CCCCCCCCCCCCCCCC(=O)O

>  <label class>
not fulfilled

$$$$
>  <line notation>
CCCCC/C=C\C/C=C\CCCCCCCC(=O)O

>  <label class>
not fulfilled

$$$$

hey, is Polymer Mass (μm/field) for CCCCCC/C=C\CCCCCCCC(=O)O lower than 7 μm/field or not?
not fulfilled

---

# assay system: juvenile rat MTτ (Rattus norvegicus, UniProt P19332, DEL587-617)
# Construct: killed by decapitation at postnatal day 11 (juveniles); from tissue; host or cells: brain microtubules of P11 Sprague-Dawley rats
# protocol summary: Fatty acid dependence of tau assembly, polymer length per field by electron microscopy
# Format: biochemical
# stated conditions: 50 μM free fatty acid, 72 hours; relative to the maximal assembly achieved with arachidonic acid
The following molecules are shown together with reported % maximum values.
Express the result in % but write the number alone.

>  <line notation>
CC/C=C\C/C=C\C/C=C\CCCCCCCC(=O)O

>  <% maximum (%)>
16

$$$$

Please look at this molecule and report its % maximum: CCC=CCC=CCC=CCC=CCC=CCCCC(=O)O
48

Please look at this molecule and report its % maximum: CCCCCC/C=C\CCCCCCCC(=O)O
97

Please look at this molecule and report its % maximum: CCCCCC=CCC=CCC=CCCCCCCC(=O)O
33

---

# assay system: juvenile rat MTτ (Rattus norvegicus, UniProt P19332, DEL587-617)
# Construct: killed by decapitation at postnatal day 11 (juveniles); from tissue; host or cells: brain microtubules of P11 Sprague-Dawley rats
# protocol summary: Fatty acid dependence of tau assembly, polymer length per field by electron microscopy
# Type: biochemical
# stated conditions: 50 μM free fatty acid, 72 hours; relative to the maximal assembly achieved with arachidonic acid
The following compounds are shown together with reported % maximum values.
Express the result in % but write the number alone.

>  <line notation>
CCCCCCCCCCCCCCCCCC(=O)O

>  <assay endpoint>
% maximum

>  <reading>
15

$$$$
>  <line notation>
CCCCCCCCCCCCCC(=O)O

>  <assay endpoint>
% maximum

>  <reading>
22

$$$$
>  <line notation>
CCCCCCCCC=CCCCCCCCCCC(=O)O

>  <assay endpoint>
% maximum

>  <reading>
34

$$$$
>  <line notation>
CCCCC/C=C\C/C=C\CCCCCCCC(=O)O

>  <assay endpoint>
% maximum

>  <reading>
60

$$$$
>  <line notation>
CCCCCC=CCC=CCCCCCCCCCC(=O)O

>  <assay endpoint>
% maximum

>  <reading>
5

$$$$
>  <line notation>
CCCCCCCC/C=C\CCCCCCCC(=O)O

>  <assay endpoint>
% maximum

>  <reading>
30

$$$$
>  <line notation>
CCCCCC=CCC=CCC=CCC=CCCCC(=O)O

>  <assay endpoint>
% maximum

>  <reading>
100

$$$$

Next up:
Please look at this compound and report its % maximum: CCCCCCCCCCCCCCCC(=O)O
30

---

The following compounds are shown together with reported Polymer Mass (μm/field) values.
# assay system: juvenile rat MTτ (Rattus norvegicus, UniProt P19332, DEL587-617)
# Construct: killed by decapitation at postnatal day 11 (juveniles); from tissue; host or cells: brain microtubules of P11 Sprague-Dawley rats
# protocol summary: Fatty acid dependence of tau assembly, polymer length per field by electron microscopy
# Format: biochemical
# stated conditions: 50 μM free fatty acid, 72 hours, juvenile rat MTτ; average ± S.E.M. (n = 12)
Kindly report the value followed by its unit.

Use the examples below as a reference point.
>  <compound>
CCC=CCC=CCC=CCC=CCC=CCCCC(=O)O [5,8,11,14,17-eicosapentaenoic acid]

>  <Polymer Mass (μm/field)>
11.81 ± 1.51 μm/field

$$$$
>  <compound>
CCCCCC=CCC=CCC=CCC=CCCCC(=O)O [5,8,11,14-eicosatetraenoic acid (20:4), 5,8,11,14-eicosatetraenoic acid]

>  <Polymer Mass (μm/field)>
24.51 ± 2.58 μm/field

$$$$
>  <compound>
CCCCCCCCCCCCCC(=O)O [myristic acid (14:0), myristic acid]

>  <Polymer Mass (μm/field)>
5.50 ± 0.76 μm/field

$$$$
>  <compound>
CCCCCCCCCCCCCCCCCC(=O)O [stearic acid (18:0), stearic acid]

>  <Polymer Mass (μm/field)>
3.60 ± 0.54 μm/field

$$$$
>  <compound>
CC/C=C\C/C=C\C/C=C\CCCCCCCC(=O)O [9,12,15-linolenic acid (18:3), 9,12,15-linolenic acid]

>  <Polymer Mass (μm/field)>
4.01 ± 0.72 μm/field

$$$$

Next up:
State recorded Polymer Mass (μm/field) with juvenile rat MTτ (Rattus norvegicus, UniProt P19332, DEL587-617), entry CCCCCCCC/C=C\CCCCCCCC(=O)O [9-oleic acid (18:1), 9-oleic acid] , no comment.
7.36 ± 1.77 μm/field
